- Method Description: chemical genetic growth profiling, strain panel (AID 1159580);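 further: tested at 20 µM; growth read once vehicle control cultures reached saturation at 30 °C; 1 = growth at the plate median or of vehicle wells; lower values mean less growth of the strain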
- Experimental Setup: S. cerevisiae deletion strains, growth OD, locus YJL168C, strain set2, stronger effect = lower value
About 2,000 (36%) of roughly 5,500 compounds were called active. Not shown: some 18% with an inconclusive outcome. The list shows a part of the results.
normalized growth values by entry
Respond numerically, and do not add a unit to the figure.

Answered examples (5):
Compound | Quantity | Reported Value
CC(=O)OC1CC(OC(C)=O)C2(C)C(CC(OC(C)=O)C3(C)C4=CC(=O)OC(=O)C4(C)CCC32)C1(C)C (configuration not stated) | normalized growth | 1
CC(=O)O[C@H]1CC[C@@]2(C)C(CC[C@]3(C)C2C(=O)C=C2C4[C@@H](C)[C@H](C)CC[C@]4(C(=O)O)CC[C@]23C)C1(C)C (some centres not stated) | normalized growth | 0.988
CC(=O)OC1CC[C@@]2(C)C(CC[C@]3(C)C2CCC2C4CC(C)(C)CCC4(C(=O)O)CC[C@]23C)C1(C)C (some centres not stated) | normalized growth | 0.977
CC1(C)CC[C@@]2(C(=O)O)C(C1)C1=CCC3[C@@]4(C)CC[C@H](O)C(C)(C)C4CC[C@@]3(C)[C@]1(C)C[C@@H]2O (some centres not stated) | normalized growth | 1.04
C/C=C(/C)C(=O)O[C@@H]1[C@H](OC(C)=O)[C@@]2(CO)C(CC1(C)C)C1=CCC3[C@@]4(C)CC[C@H](O[C@@H]5O[C@H](C(=O)O)[C@@H](O[C@@H]6O[C@H](CO)[C@@H](O)[C@H](O)[C@H]6O)[C@H](O)[C@H]5O[C@@H]5O[C@H](CO)[C@@H](O)[C@H](O)[C@H]5O)[C@](C)(CO)C4CC[C@@]3(C)[C@]1(C)C[C@H]2O (some centres not stated) | normalized growth | 1.01

Query block: Look up normalized growth for this compound: C[C@@H]1CC[C@]2(C(=O)O)CC[C@]3(C)C(=CCC4[C@@]5(C)CC[C@H](O)C(C)(C)C5CC[C@]43C)C2[C@H]1C (some centres not stated)
Result block: 0.986

Query block: Look up normalized growth for this compound: C[C@@H]1OC(O[C@H]2[C@H](OC(=O)[C@]34CCC(C)(C)CC3C3=CCC5[C@@]6(C)CC[C@H](OC7O[C@@H](C)[C@H](O[C@@H]8OC[C@@H](O)[C@H](O)[C@H]8O)[C@@H](O)[C@H]7O)C(C)(C)C6CC[C@@]5(C)[C@]3(C)CC4O)OC[C@H](O)[C@H]2O)[C@H](O)[C@H](O)[C@H]1O[C@@H]1O[C@H](CO)[C@@H](O)[C@H](O)[C@H]1O (some centres not stated)
Result block: 1.01

Query block: Look up normalized growth for this compound: COC(=O)C[C@H]1C(C)(C)C(=O)[C@@H]2CC3C4=CC(=O)O[C@@H](c5ccoc5)[C@]4(C)CCC3[C@@]1(C)C2=O (some centres not stated)
Result block: 0.991

Query block: Look up normalized growth for this compound: C/C=C(/C)C(=O)OC1CCC2(C)C3CCC4C5(O)CC(O)C6(O)C(CN7CC(C)CCC7C6(C)O)C5(O)CC42OC13O (configuration not stated)
Result block: 0.976

Query block: Look up normalized growth for this compound: CC1(C)CC[C@]2(C(=O)O)CC[C@]3(C)C(=CCC4[C@@]5(C)CC[C@H](O)[C@@](C)(CO)C5CC[C@]43C)C2C1 (some centres not stated)
Result block: 0.998

Query block: Look up normalized growth for this compound: NC12CC3CC(CC(C3)C1)C2
Result block: 1.02

Query block: Look up normalized growth for this compound: CC(=O)NC(C(=O)O)C(C)(C)SN=O (configuration not stated)
Result block: 1.01

Measured values drawn from PubChem BioAssay AID1159580 for this set.
